- study-system: T1, Human CD3eg linker (human)
- T1 construct: Single chain: epsilon and gamma subunits of human CD3 joined by a 29-mer linker, Flag-tag at the C-terminus; also called recombinant human CD3
- T1 chain: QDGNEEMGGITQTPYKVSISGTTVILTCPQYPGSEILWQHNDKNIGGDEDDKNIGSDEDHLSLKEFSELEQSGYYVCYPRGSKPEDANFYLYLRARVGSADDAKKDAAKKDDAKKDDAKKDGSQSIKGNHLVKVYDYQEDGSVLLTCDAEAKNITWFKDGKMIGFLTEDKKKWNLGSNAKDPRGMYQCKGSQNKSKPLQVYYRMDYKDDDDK
- assay-explanation: Biacore SPR, vs template H183/L072
measure: fold change of affinity (fold)
Quick note: give the figure in fold, leave out the unit.

Would you please look over these solved cases?
{"columns": ["binder", "uom", "observed-value"],
 "data": [
  ["H183/L072 VH Y58P (antibody, name in Kabat numbering, V domains shown) VH: QVQLVESGGGLVQPGRSLRLSCAASGFTFSNAWMHWVRQAPGKGLEWVAQIKDKGNAYAAPYAPSVKGRFTISRDDSKNSIYLQMNSLKTEDTAVYYCHYVHYASASTVLPAFGVDAWGQGTTVTVSS VL: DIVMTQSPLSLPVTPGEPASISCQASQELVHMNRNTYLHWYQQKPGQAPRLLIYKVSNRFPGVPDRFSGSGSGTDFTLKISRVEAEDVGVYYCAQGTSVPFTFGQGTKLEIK", "fold", 0.5],
  ["H183/L072 VH G26A (antibody, name in Kabat numbering, V domains shown) VH: QVQLVESGGGLVQPGRSLRLSCAASAFTFSNAWMHWVRQAPGKGLEWVAQIKDKGNAYAAYYAPSVKGRFTISRDDSKNSIYLQMNSLKTEDTAVYYCHYVHYASASTVLPAFGVDAWGQGTTVTVSS VL: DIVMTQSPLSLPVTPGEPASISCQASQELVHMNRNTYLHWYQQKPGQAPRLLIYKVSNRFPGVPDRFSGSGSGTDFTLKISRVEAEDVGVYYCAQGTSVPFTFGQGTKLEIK", "fold", 0.5]
]}

# ---- query binder ----
Report fold change of affinity for H183/L072 VH Y58N (antibody, name in Kabat numbering, V domains shown) VH: QVQLVESGGGLVQPGRSLRLSCAASGFTFSNAWMHWVRQAPGKGLEWVAQIKDKGNAYAANYAPSVKGRFTISRDDSKNSIYLQMNSLKTEDTAVYYCHYVHYASASTVLPAFGVDAWGQGTTVTVSS VL: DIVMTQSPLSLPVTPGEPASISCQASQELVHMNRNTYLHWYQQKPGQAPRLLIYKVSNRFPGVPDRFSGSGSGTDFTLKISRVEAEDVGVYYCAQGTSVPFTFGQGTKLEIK
0.5
